# credit: patent US20150337042A1

Catalogue of kon readings, one per entry.
- TARGET DESC: T1, EGFRvIII extracellular domain (EGFR (1-29)-G-(298-645)-LESRGPF-Myc-NMHTG-6His) (human, UniProt P00533 298-641)
- T1 construct: also called recombinant EGFRvIII; not shown: Myc tag
- TEST DETAILS: SPR (Biacore), antibody captured via anti-human Fc, antigen injected
RECORDED ENDPOINT: kon (M⁻¹ s⁻¹)

>  <BINDER>
Antibody P (AbP) (antibody, V domains shown, Full length IgG1) VH: EVQLQESGPGLVKPSQTLSLTCTVSGYSISHDFAWNWIRQPPGKGLEWMGYISYSGNTRYQPSLKSRITISRDTSKNQFFLKLNSVTAADTATYYCVTASWGLPWWGQGTLVTVSS VL: DIQMTQSPSSMSVSVGDRVTITCHSSQDINMNVGWLQQKPGKSFKGLIYHGAILDDGVPSRFSGSGSGTDYTLTISSLQPEDFATYYCVQYAEFPWTFGGGTKLEIK

>  <RECORDED ENDPOINT>
kon

>  <MEASURED VALUE>
117000

$$$$
>  <BINDER>
Antibody F (AbF) (antibody, V domains shown, Full length IgG1) VH: EVQLQESGPGLVKPSQTLSLTCTVSGYSISRDFAWNWIRQPPGKGLEWMGYISYSGNTRYQPSLKSRITISRDTSKNQFFLKLNSVTAADTATYYCVTASRGFPYWGQGTLVTVSS VL: DIQMTQSPSSMSVSVGDRVTITCHSSQDINSNIGWLQQKPGKSFKGLIYHGTNLDDGVPSRFSGSGSGTDYTLTISSLQPEDFATYYCVQYAQFPWTFGGGTKLEIK

>  <RECORDED ENDPOINT>
kon

>  <MEASURED VALUE>
83600

$$$$
>  <BINDER>
Antibody M (AbM) (antibody, V domains shown, Full length IgG1) VH: EVQLQESGPGLVKPSQTLSLTCTVSGYSIGRDFAWNWIRQPPGKGLEWMGYISYNGNTRYQPSLKSRITISRDTSKNQFFLKLNSVTAADTATYYCVTASRGFPYWGQGTLVTVSS VL: DIQMTQSPSSMSVSVGDRVTITCHSSQDITYNVGWLQQKPGKSFKGLIYHGSNLDHGVPSRFSGSGSGTDYTLTISSLQPEDFATYYCVQYDDFPWTFGGGTKLEIK

>  <RECORDED ENDPOINT>
kon

>  <MEASURED VALUE>
187000

$$$$
